Every entry's value here was drawn from patent US8658604B2.

# Target system: Urokinase from human urine (Homo sapiens, UniProt P00749)
# Test: Enzymatic assay, urokinase
Where a SMILES comes first, the peptide text is derived from it.
Reported metric: Urokinase at 100 μM % (%)
State just the number; it will be interpreted in %.

Hi! What's the reported Urokinase at 100 μM % for CCCCCCCC[C@@H]1NC(=O)[C@@H]2CCCN2C(=O)[C@H]2CCCN2C(=O)[C@H](Cc2ccc(O)cc2)NC(=O)[C@@H]2CSSC[C@H](NC1=O)C(=O)N[C@@H]([C@@H](C)O)C(=O)N[C@@H](C)C(=O)N[C@@H](CO)C(=O)N[C@@H]([C@@H](C)CC)C(=O)N1CCC[C@H]1C(=O)N1CCC[C@H]1C(=O)N[C@@H](CCC(N)=O)C(=O)N2 [Ex. 102] (HELM PEPTIDE1{[CCCCCCCC[C@H](N[*:1])C(=O)[*:2]].C.T.A.S.I.P.P.Q.C.Y.[dP].P}$PEPTIDE1,PEPTIDE1,2:R3-10:R3|PEPTIDE1,PEPTIDE1,1:R1-13:R2$$$V2.0) on Urokinase from human urine (Homo sapiens, UniProt P00749)?
0.5
